Data provenance is patent US20230141988A1.

# EXPERIMENT: Plasma and CSF pharmacokinetic study, single sublingual, oral or subcutaneous dose, male Beagle dogs
# Assay type: in vivo
# EXPERIMENTAL_SETUP: male, beagle, dog, plasma, 5 mg/kg, male Beagle dogs (fasted), single SL 5 mg/kg, plasma, individual dogs; read-out: AUCinf
RESULT_TYPE: AUC(0-inf) (ng·h/mL)

>>> print(df.to_string())
                              chem_smiles  readout_number
0  CN1CCc2cccc3c2[C@@H]1Cc1ccc(O)c(O)c1-3             178

----------
# EXPERIMENT: in vivo
# EXPERIMENTAL_SETUP: male, cynomolgus monkey, po, 10 mg/kg, Plasma concentration, fed male Cynomolgus Monkeys, 2 h, animal 168779C
RESULT_TYPE: concentration at 2 h (ng/mL)

                              chem_smiles  readout_number
0  CN1CCc2cccc3c2[C@@H]1Cc1ccc(O)c(O)c1-3            6.27
